Header: pIC50 / Fibroblast growth factor receptor 1 (Homo sapiens, UniProt P11362) / multiple publications
pIC50: −log10 of the molar value.

Before answering, review these 6 worked examples.
[
  {
    "COMPOUND": "CC(C)n1cnc2cnc(NC(=O)N3CCCc4cc(CN5CCN(C)CC5=O)c(C=O)nc43)cc21",
    "TARGET": "Fibroblast growth factor receptor 1 (Homo sapiens, UniProt P11362)",
    "pIC50": "< 5.00"
  },
  {
    "COMPOUND": "COc1cc(OC)c(F)c(-c2ncc3c(-c4ccc(N5CCN(C)CC5)nc4)n[nH]c3n2)c1F",
    "TARGET": "Fibroblast growth factor receptor 1 (Homo sapiens, UniProt P11362)",
    "pIC50": "> 7.00"
  },
  {
    "COMPOUND": "CC(Oc1ccc2[nH]nc(/C=C/c3ccc(CN4CCc5ccccc5C4)cc3)c2c1)c1c(Cl)cncc1Cl (stereo not shown)",
    "TARGET": "Fibroblast growth factor receptor 1 (Homo sapiens, UniProt P11362)",
    "pIC50": "6.00 to 7.30"
  },
  {
    "COMPOUND": "COc1cc(Nc2ncnc(-c3cccnc3NCc3ccc(F)cc3)n2)cc(OC)c1OC",
    "TARGET": "Fibroblast growth factor receptor 1 (Homo sapiens, UniProt P11362)",
    "pIC50": "> 6.06"
  },
  {
    "COMPOUND": "COc1cc(OC)c(Cl)c(-c2cc3[nH]nc(-c4cnn(CC(=O)NC5CCN(C)CC5)c4)c3cn2)c1Cl",
    "TARGET": "Fibroblast growth factor receptor 1 (Homo sapiens, UniProt P11362)",
    "pIC50": "> 7.00"
  },
  {
    "COMPOUND": "[2H]C([2H])([2H])NC(=O)c1cc(C)c(F)c(-c2cnn3cc(-c4cnn(C5CCN(C(C)C)CC5)n4)c(N[C@H]4CCOC4)nc23)c1",
    "TARGET": "Fibroblast growth factor receptor 1 (Homo sapiens, UniProt P11362)",
    "pIC50": "> 8.00"
  }
]

// next item, pIC50 requested
Exam item: Entry `C=CC(=O)NCc1cc2c(cn1)CN(c1c(F)c(OC)cc(OC)c1F)C(=O)N2CC1CCC1` , system Fibroblast growth factor receptor 1 (Homo sapiens, UniProt P11362): what pIC50 was measured?
Marked response: 6.70 to 7.52

* * *

Header: pIC50 / Fibroblast growth factor receptor 1 (Homo sapiens) / multiple publications
pIC50: −log10 of the molar value.

[
  {
    "COMPOUND": "COc1cc(Nc2ncnc(-n3c(N)nc4cc([N+](=O)[O-])ccc43)n2)cc(OC)c1OC",
    "pIC50": "< 4.99"
  }
]

Exam item: Entry `COc1cc2nccc(Oc3ccc(NC(=S)N4CC[C@@H](O)C4)c(Cl)c3)c2cc1C(N)=O` , system Fibroblast growth factor receptor 1 (Homo sapiens): what pIC50 was measured?
Marked response: 6.00 to 6.70

Exam item: Entry `CCN(CC)CCOc1cc2nccc(Oc3ccc(NC(=S)NC4CC4)c(Cl)c3)c2cc1C(N)=O` , system Fibroblast growth factor receptor 1 (Homo sapiens): what pIC50 was measured?
Marked response: 6.00 to 6.70

Exam item: Entry CO[C@H]1CCOCC1Nc1cc(NC(=O)N2CCCc3cc(CN4CCOCC4=O)c(C=O)nc32)ncc1C#N (some centres unmarked) , system Fibroblast growth factor receptor 1 (Homo sapiens): what pIC50 was measured?
Marked response: < 5.00

Exam item: Entry COc1cc(CCc2cnc3[nH]c(-c4cnn(C(C)CC#N)c4)cc3n2)cc(OC)c1 (centres unmarked) , system Fibroblast growth factor receptor 1 (Homo sapiens): what pIC50 was measured?
Marked response: > 7.00

Exam item: Entry `COc1cc(OC)c(F)c(Cc2c[nH]c3ncc(-c4cnn(C5CCNCC5)c4)cc23)c1F` , system Fibroblast growth factor receptor 1 (Homo sapiens): what pIC50 was measured?
Marked response: 9.10

Exam item: Entry `CCN1CCC(Nc2ccc3c(c2)/C(=C(/c2ncc[nH]2)c2ccc(C(F)(F)F)cc2F)C(=O)N3)CC1` , system Fibroblast growth factor receptor 1 (Homo sapiens): what pIC50 was measured?
Marked response: > 7.30

Exam item: Entry `COCCNc1cc(NC(=O)N(C)c2cccc(C=O)n2)ncc1C#N` , system Fibroblast growth factor receptor 1 (Homo sapiens): what pIC50 was measured?
Marked response: < 5.00
